Please respond with reported abundance fitness for every item in the list.
B1: Poly(rC)-binding protein 1, residues 278 to 350; numbered along this chain, Q15365 (parent)
chain: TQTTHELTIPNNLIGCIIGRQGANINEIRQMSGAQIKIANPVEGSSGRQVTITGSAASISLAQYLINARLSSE

Variants of: B1
TEST_SUMMARY: abundance fitness (aPCA) (normalised: wild type 0, dead -1); higher = more abundant; growth selection in yeast, the domain comes from the species named
RECORDED_CONDITIONS: Homo sapiens
Numbers only.

Consider the following illustrative entries.
>  <MUTATION_DESCRIPTOR>
A62E

>  <OBSERVABLE>
abundance fitness

>  <QUANTITATIVE_READOUT>
-0.902

$$$$
>  <MUTATION_DESCRIPTOR>
A56F

>  <OBSERVABLE>
abundance fitness

>  <QUANTITATIVE_READOUT>
0.032

$$$$
>  <MUTATION_DESCRIPTOR>
V42C

>  <OBSERVABLE>
abundance fitness

>  <QUANTITATIVE_READOUT>
-0.086

$$$$

Look up abundance fitness for the entries below, preserving their order.
1. S45G
2. S55V
3. L61S
4. I9T

// result
1. -0.292
2. -0.396
3. 0.084
4. -0.79
